- assay overview: Inhibition of AKT-mediated GSK3-beta phosphorylation in human BT474 cells by mechanistic assay
- Assay type: cell-based
- measurement context: BT-474
pIC50: −log10 of the molar value.
# if value of pIC50 reaches 6, tag satisfied; if it stays below, tag not satisfied

compound=NC[C@H](Cc1cccc(C(F)(F)F)c1)NC(=O)c1cc(Br)c(-c2ccnc3[nH]ccc23)s1 group_label=satisfied
compound=NC[C@@H](Cc1ccccc1)NC(=O)c1cc(Br)c(-c2ccnc3[nH]ccc23)s1 group_label="not satisfied"
compound=NC[C@H](Cc1ccc(F)cc1)NC(=O)c1cc(Br)c(-c2ccnc3[nH]ccc23)s1 group_label=satisfied
compound=NC[C@H](Cc1ccccc1)NC(=O)c1cc(Br)c(-c2ccnc3[nH]ccc23)s1 group_label=satisfied
compound="NCCCC(NC(=O)c1cc(Br)c(-c2ccnc3[nH]ccc23)s1)c1ccccc1 (centres undefined)" group_label="not satisfied"
compound=NC[C@H](Cc1cccc(F)c1)NC(=O)c1cc(Br)c(-c2ccnc3[nH]ccc23)s1 group_label=satisfied
compound=NCCNC(=O)c1cc(Br)c(-c2ccnc3[nH]ccc23)s1 group_label="not satisfied"

---

- assay overview: Cmax in rat at 10 mg/kg, po after 24 hrs
- Assay type: ADME, organism-based
- Set-up: dose 10 mg/kg, route oral
- measurement context: in vivo
assay readout: Cmax

molecule="NCC(NC(=O)c1cc(Br)c(-c2ccnc3[nH]ccc23)s1)c1ccccc1 (racemic)" assay_readout=Cmax test_value="550 ng/mL"
molecule="NCC(Cc1ccccc1)NC(=O)c1cc(Br)c(-c2ccnc3[nH]ccc23)s1 (racemic)" assay_readout=Cmax test_value="248 ng/mL"

---

- assay overview: Inhibition of AKT-mediated GSK3-beta phosphorylation in human BT474 cells by mechanistic assay
- Type: cell-based
- measurement context: BT-474
pIC50: −log10 of the molar value.
assay readout: pIC50

molecule="NCCC(NC(=O)c1cc(Br)c(-c2ccnc3[nH]ccc23)s1)c1ccccc1 (stereo unspecified)" relational_operator== test_value=5.82
molecule="NCC(NC(=O)c1cc(Br)c(-c2ccnc3[nH]ccc23)s1)c1ccccc1 (racemic)" relational_operator== test_value=6.30
molecule="NCC(Cc1ccccc1)NC(=O)c1cc(Br)c(-c2ccnc3[nH]ccc23)s1 (racemic)" relational_operator== test_value=7.10
molecule="CNCC(Cc1ccccc1)NC(=O)c1cc(Br)c(-c2ccnc3[nH]ccc23)s1 (stereo unspecified)" relational_operator== test_value=6.59
molecule="CN(C)CC(NC(=O)c1cc(Br)c(-c2ccnc3[nH]ccc23)s1)c1ccccc1 (stereo unspecified)" relational_operator=< test_value=5.00
molecule="NCC(NC(=O)c1cc(-c2c[nH]c3ncccc23)cs1)c1ccccc1 (stereo unspecified)" relational_operator== test_value=5.96
molecule="NCC(C(=O)Nc1cc(Br)c(-c2ccnc3[nH]ccc23)s1)c1ccccc1 (stereo unspecified)" relational_operator== test_value=5.33
molecule="Cc1cc(C(=O)NC(CN)c2ccccc2)sc1-c1ccnc2[nH]ccc12 (stereo unspecified)" relational_operator== test_value=6.92
molecule=NC[C@H](Cc1ccccc1F)NC(=O)c1cc(Br)c(-c2ccnc3[nH]ccc23)s1 relational_operator== test_value=6.66
molecule=NC[C@H](Cc1ccc(C(F)(F)F)cc1)NC(=O)c1cc(Br)c(-c2ccnc3[nH]ccc23)s1 relational_operator== test_value=5.70
molecule=NC[C@H](CC1CCCCC1)NC(=O)c1cc(Br)c(-c2ccnc3[nH]ccc23)s1 relational_operator== test_value=5.72
molecule="NC(CNC(=O)c1cc(Br)c(-c2ccnc3[nH]ccc23)s1)c1ccccc1 (stereo unspecified)" relational_operator=< test_value=5.00
molecule="CNCC(NC(=O)c1cc(Br)c(-c2ccnc3[nH]ccc23)s1)c1ccccc1 (stereo unspecified)" relational_operator== test_value=6.11
molecule=NC[C@H](Cc1ccncc1)NC(=O)c1cc(Br)c(-c2ccnc3[nH]ccc23)s1 relational_operator== test_value=5.72
molecule="NCC(NC(=O)c1ccc(-c2ccnc3[nH]ccc23)s1)c1ccccc1 (stereo unspecified)" relational_operator== test_value=6.72
molecule="NCC(NC(=O)c1cc(-c2ccnc3[nH]ccc23)cs1)c1ccccc1 (stereo unspecified)" relational_operator== test_value=6.00
molecule="NCC(NC(=O)c1cc(-c2cn[nH]c2)c(-c2ccnc3[nH]ccc23)s1)c1ccccc1 (stereo unspecified)" relational_operator== test_value=5.60
molecule="NCC(NCc1ccc(-c2ccnc3[nH]ccc23)s1)c1ccccc1 (stereo unspecified)" relational_operator=< test_value=5.00
molecule=NC[C@H](Cc1ccccc1C(F)(F)F)NC(=O)c1cc(Br)c(-c2ccnc3[nH]ccc23)s1 relational_operator== test_value=7.30
molecule="NCC(C(=O)Nc1ccc(-c2ccnc3[nH]ccc23)s1)c1ccccc1 (stereo unspecified)" relational_operator== test_value=6.25
molecule="NCC(NC(=O)c1cc(-c2ccccc2)c(-c2ccnc3[nH]ccc23)s1)c1ccccc1 (stereo unspecified)" relational_operator== test_value=5.00
molecule="NCC(NC(=O)c1cc(-c2cccnc2)c(-c2ccnc3[nH]ccc23)s1)c1ccccc1 (stereo unspecified)" relational_operator== test_value=5.22
molecule="CC(C)NCC(Cc1ccccc1)NC(=O)c1cc(Br)c(-c2ccnc3[nH]ccc23)s1 (stereo unspecified)" relational_operator== test_value=5.68
molecule="NCC(NC(=O)c1ccc(-c2c[nH]c3ncccc23)s1)c1ccccc1 (stereo unspecified)" relational_operator== test_value=6.62
molecule=COc1ccc(C[C@@H](CN)NC(=O)c2cc(Br)c(-c3ccnc4[nH]ccc34)s2)cc1 relational_operator== test_value=6.00
molecule="NCC(CNc1ccc(-c2ccnc3[nH]ccc23)s1)c1ccccc1 (stereo unspecified)" relational_operator=< test_value=5.00

The reported measurements were obtained from ChEMBL document CHEMBL1153968.
